# Test system: HaCaT
# assay: Selectivity index, ratio of GI50 for human HaCaT cells to GI50 for human PC3 cells
# Type: functional
Lab note: cut-off is 2. Strictly less in RatioGI50 is t. Exactly 2 or more is f.

>  <input.smiles>
Clc1ccc(Cn2cc(CCCOc3cccc4cccnc34)nn2)cc1

>  <target.entity>
HaCaT

>  <label>
t

$$$$
>  <input.smiles>
c1ccc(Cn2cc(CCCOc3cccc4cccnc34)nn2)cc1

>  <target.entity>
HaCaT

>  <label>
t

$$$$
>  <input.smiles>
O=C(Cn1cc(CCCOc2cccc3cccnc23)nn1)OCc1ccc(F)c(F)c1

>  <target.entity>
HaCaT

>  <label>
f

$$$$
>  <input.smiles>
Fc1ccc(Cn2cc(CCCOc3cccc4cccnc34)nn2)cc1F

>  <target.entity>
HaCaT

>  <label>
f

$$$$
>  <input.smiles>
FC(F)(F)Oc1ccc(Cn2cc(CCCOc3cccc4cccnc34)nn2)cc1

>  <target.entity>
HaCaT

>  <label>
t

$$$$
>  <input.smiles>
Clc1ccc(Br)cc1Cn1cc(CCCOc2cccc3cccnc23)nn1

>  <target.entity>
HaCaT

>  <label>
t

$$$$
>  <input.smiles>
Clc1cc(Cl)c(Cn2cc(CCCOc3cccc4cccnc34)nn2)c(Cl)c1

>  <target.entity>
HaCaT

>  <label>
t

$$$$
>  <input.smiles>
CC1(C)O[C@H]2[C@@H](O1)[C@@H](Cn1cc(CCCOc3cccc4cccnc34)nn1)O[C@@H]1OC(C)(C)O[C@@H]12

>  <target.entity>
HaCaT

>  <label>
t

$$$$
>  <input.smiles>
Brc1ccc(Cn2cc(CCCOc3cccc4cccnc34)nn2)cc1

>  <target.entity>
HaCaT

>  <label>
f

$$$$
>  <input.smiles>
Ic1ccc(Cn2cc(CCCOc3cccc4cccnc34)nn2)cc1

>  <target.entity>
HaCaT

>  <label>
f

$$$$
>  <input.smiles>
c1cncc(CCCn2cc(CCCOc3cccc4cccnc34)nn2)c1

>  <target.entity>
HaCaT

>  <label>
t

$$$$
>  <input.smiles>
Fc1ccc(Cn2cc(CCCOc3cccc4cccnc34)nn2)cc1

>  <target.entity>
HaCaT

>  <label>
f

$$$$
